- procedure.text: High-throughput equilibrium solubility at pH 6.8
- Assay type: physicochemical
- condition: pH 6.8, aqueous buffer, thermodynamic from solid; read-out: HT-Eq Sol/pH 6.8
Mark false (0) for solubility thermodynamic values under 10 µg/mL, and true (1) for everything at or above.

Please review the entries below; each comes with its answer.
CNc1cc(-c2ccc3ncc4c(c3c2)n(-c2ccc(F)nc2C)c(=O)n4C)cnc1CO [Example 7.11] : true (1)
COc1ncccc1-n1c(=O)n(C)c2cnc3ccc(-c4cnc5[nH]ccc5c4)cc3c21 [Example 1.2] : false (0)
COCCOc1cncc(-c2ccc3ncc4c(c3c2)n(-c2cccnc2C)c(=O)n4C)c1 [Example 2.17] : true (1)

Input line: Determine whether measured solubility thermodynamic meets or exceeds 10 µg/mL for Cc1nc(C(C)(C)O)ccc1-n1c(=O)n(C)c2cnc3ccc(-c4cncc(C5(C#N)CCC5)c4)cc3c21 [Example 31.8]
Output line: true (1)

Input line: Determine whether measured solubility thermodynamic meets or exceeds 10 µg/mL for COc1ccc(-n2c(=O)n(C)c3cnc4ccc(-c5cnc(CO)c(OC)c5)cc4c32)c(C)n1 [Example 11.8]
Output line: true (1)

Input line: Determine whether measured solubility thermodynamic meets or exceeds 10 µg/mL for COc1ccc(-n2c(=O)n(C)c3cnc4ccc(-c5ccc6nccn6c5)cc4c32)c(OC)n1 [Example 8.10]
Output line: true (1)

Input line: Determine whether measured solubility thermodynamic meets or exceeds 10 µg/mL for CNc1ncc(-c2ccc3ncc4c(c3c2)n(-c2ccc(N3CC(F)(F)C3)nc2C)c(=O)n4C)cn1 [Example 24.1]
Output line: true (1)

Input line: Determine whether measured solubility thermodynamic meets or exceeds 10 µg/mL for COc1ncccc1-n1c(=O)n(C)c2cnc3ccc(-c4cnc5c(ccn5C)c4)cc3c21 [Example 1.7]
Output line: false (0)

Input line: Determine whether measured solubility thermodynamic meets or exceeds 10 µg/mL for CNc1ncc(-c2ccc3ncc4c(c3c2)n(-c2ccc(N3CC(O)C3)nc2C)c(=O)n4C)cc1F [Example 29.3]
Output line: true (1)

* * *

- target.or.system: PI3K delta (Homo sapiens)
- Construct: for the full-length p110-d subunit are generated and fused by overlapping PCR; His tag (C); made in house; host or cells: baculovirus BV1060; Tn5 (Trichoplusia ni) or TiniPro insect cells
- procedure.text: PI3K delta kinase assay (Kinase-Glo luminescence)
- Assay type: biochemical
- condition: read-out: EPK_PI3Kdelta/IC50
# note: exactly 30 nM is not below, so it is class 0; use class 1 for IC50 strictly under it

CNc1cc(-c2ccc3ncc4c(c3c2)n(-c2ccc(N(C)C)nc2C)c(=O)n4C)cnc1C [Example 19.2] : class 1
Cc1nc(N2CCC(O)C2)ccc1-n1c(=O)n(C)c2cnc3ccc(-c4cncc(C(C)(C)O)c4)cc3c21 (stereo not drawn) [Example 27.5] : class 0
COc1ccc(-n2c(=O)n(C)c3cnc4ccc(-c5cnc(N(C)C)nc5)cc4c32)c(Cl)n1 [Example 18.3] : class 1
CCOc1cc(-c2ccc3ncc4c(c3c2)n(-c2ccc(F)nc2C)c(=O)n4C)cnc1COC [Example 7.5] : class 0
CCOc1cc(-c2ccc3ncc4c(c3c2)n(-c2cccnc2C)c(=O)n4C)cnc1COC [Example 2.28] : class 0
COc1cc(-c2ccc3ncc4c(c3c2)n(-c2ccc(N3CCCC3)nc2C)c(=O)n4C)cnc1CO [Example 25.4] : class 0

Input line: Dear colleague, could you confirm whether IC50 of CCNc1cc(-c2ccc3ncc4c(c3c2)n(-c2ccc(N(C)CC)nc2C)c(=O)n4C)cnc1C [Example 12.2] falls below 30 nM? Thanks.
Output line: class 1

Input line: Dear colleague, could you confirm whether IC50 of CCNc1cc(-c2ccc3ncc4c(c3c2)n(-c2ccc(N(C)CCOC)nc2C)c(=O)n4C)cnc1C [Example 15.6] falls below 30 nM? Thanks.
Output line: class 1

Input line: Dear colleague, could you confirm whether IC50 of Cc1nc(N2CCC2)ccc1-n1c(=O)n(C)c2cnc3ccc(-c4cncc(N5CCC5)c4)cc3c21 [Example 23.1] falls below 30 nM? Thanks.
Output line: class 0

Input line: Dear colleague, could you confirm whether IC50 of Cc1ncccc1-n1c(=O)n(C)c2cnc3ccc(-c4cncc(NC(C)C)c4)cc3c21 [Example 2.24] falls below 30 nM? Thanks.
Output line: class 0

Input line: Dear colleague, could you confirm whether IC50 of CNc1ncc(-c2ccc3ncc4c(c3c2)n(-c2ccc(N(C)CCOC)nc2C)c(=O)n4C)cn1 [Example 15.2] falls below 30 nM? Thanks.
Output line: class 0

* * *

- target.or.system: mTOR (Homo sapiens, UniProt P42345)
- Construct: purchased Invitrogen Corporation (Carlsbad/Calif., USA) PV4753
- Sequence (P42345 1360-2549 limits assumed): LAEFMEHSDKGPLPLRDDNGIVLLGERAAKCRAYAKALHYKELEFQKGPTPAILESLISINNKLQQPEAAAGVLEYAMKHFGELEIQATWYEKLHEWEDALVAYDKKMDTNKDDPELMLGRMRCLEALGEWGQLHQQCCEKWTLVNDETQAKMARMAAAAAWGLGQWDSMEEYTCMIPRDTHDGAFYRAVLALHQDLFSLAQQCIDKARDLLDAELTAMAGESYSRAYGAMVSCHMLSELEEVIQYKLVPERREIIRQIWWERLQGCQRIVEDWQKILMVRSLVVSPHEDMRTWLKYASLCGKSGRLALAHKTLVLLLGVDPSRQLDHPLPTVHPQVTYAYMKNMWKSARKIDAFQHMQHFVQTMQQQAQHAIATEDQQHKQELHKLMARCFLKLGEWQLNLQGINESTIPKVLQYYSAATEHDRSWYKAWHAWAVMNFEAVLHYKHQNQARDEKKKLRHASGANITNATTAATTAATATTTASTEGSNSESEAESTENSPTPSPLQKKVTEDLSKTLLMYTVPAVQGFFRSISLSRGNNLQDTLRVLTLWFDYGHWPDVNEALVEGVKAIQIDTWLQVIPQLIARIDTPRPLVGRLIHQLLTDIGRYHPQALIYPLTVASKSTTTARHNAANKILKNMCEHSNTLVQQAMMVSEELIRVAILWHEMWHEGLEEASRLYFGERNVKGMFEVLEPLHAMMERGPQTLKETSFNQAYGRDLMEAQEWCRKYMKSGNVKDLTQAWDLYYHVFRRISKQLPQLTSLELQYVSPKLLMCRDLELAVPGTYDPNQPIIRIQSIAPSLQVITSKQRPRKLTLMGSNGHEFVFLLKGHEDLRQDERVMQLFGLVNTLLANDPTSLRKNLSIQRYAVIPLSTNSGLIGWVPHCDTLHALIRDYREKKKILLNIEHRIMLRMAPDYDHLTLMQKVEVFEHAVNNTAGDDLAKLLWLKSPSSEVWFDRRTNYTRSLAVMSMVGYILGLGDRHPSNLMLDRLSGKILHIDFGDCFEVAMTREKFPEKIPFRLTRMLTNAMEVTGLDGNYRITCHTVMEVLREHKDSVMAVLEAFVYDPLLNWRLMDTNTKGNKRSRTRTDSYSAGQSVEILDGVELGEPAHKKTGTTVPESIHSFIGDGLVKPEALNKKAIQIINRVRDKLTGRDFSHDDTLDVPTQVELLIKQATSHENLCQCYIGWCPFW
- procedure.text: Biochemical assay for m-TOR by TR-FRET
- condition: read-out: EPK_mTOR/IC50
# note: exactly 10 nM is not below, so it is Condition not met; use Condition met for IC50 strictly under it

Please review the entries below; each comes with its answer.
CNc1cc(-c2ccc3ncc4c(c3c2)n(-c2ccc(N(C)C)nc2C)c(=O)n4C)cnc1C [Example 19.2] : Condition met
Cc1ccc(-n2c(=O)n(C)c3cnc4ccc(-c5cnc6c(ccn6C)c5)cc4c32)c(C)n1 [Example 14.7] : Condition not met
COc1ncc(-c2ccc3ncc4c(c3c2)n(-c2ccc(N3CC(O)C3)nc2C)c(=O)n4C)c(OC)n1 [Example 29.6] : Condition not met

Input line: Dear colleague, could you confirm whether IC50 of COCc1cc(-c2ccc3ncc4c(c3c2)n(-c2ccc(C(F)(F)F)nc2C)c(=O)n4C)cnc1N [Example 33.3] falls below 10 nM? Thanks.
Output line: Condition not met

Input line: Dear colleague, could you confirm whether IC50 of Cc1nc(N2CC(F)(F)C(F)(F)C2)ccc1-n1c(=O)n(C)c2cnc3ccc(-c4cncc(C(C)(C)O)c4)cc3c21 [Example 35.1] falls below 10 nM? Thanks.
Output line: Condition not met

* * *

- target.or.system: PI3K delta (Homo sapiens, UniProt O00329)
- Construct: for the full-length p110-d subunit are generated and fused by overlapping PCR; His tag (C); made in house; host or cells: baculovirus BV1060; Tn5 (Trichoplusia ni) or TiniPro insect cells
- Sequence (O00329 with tags, fused parts or gaps limits assumed): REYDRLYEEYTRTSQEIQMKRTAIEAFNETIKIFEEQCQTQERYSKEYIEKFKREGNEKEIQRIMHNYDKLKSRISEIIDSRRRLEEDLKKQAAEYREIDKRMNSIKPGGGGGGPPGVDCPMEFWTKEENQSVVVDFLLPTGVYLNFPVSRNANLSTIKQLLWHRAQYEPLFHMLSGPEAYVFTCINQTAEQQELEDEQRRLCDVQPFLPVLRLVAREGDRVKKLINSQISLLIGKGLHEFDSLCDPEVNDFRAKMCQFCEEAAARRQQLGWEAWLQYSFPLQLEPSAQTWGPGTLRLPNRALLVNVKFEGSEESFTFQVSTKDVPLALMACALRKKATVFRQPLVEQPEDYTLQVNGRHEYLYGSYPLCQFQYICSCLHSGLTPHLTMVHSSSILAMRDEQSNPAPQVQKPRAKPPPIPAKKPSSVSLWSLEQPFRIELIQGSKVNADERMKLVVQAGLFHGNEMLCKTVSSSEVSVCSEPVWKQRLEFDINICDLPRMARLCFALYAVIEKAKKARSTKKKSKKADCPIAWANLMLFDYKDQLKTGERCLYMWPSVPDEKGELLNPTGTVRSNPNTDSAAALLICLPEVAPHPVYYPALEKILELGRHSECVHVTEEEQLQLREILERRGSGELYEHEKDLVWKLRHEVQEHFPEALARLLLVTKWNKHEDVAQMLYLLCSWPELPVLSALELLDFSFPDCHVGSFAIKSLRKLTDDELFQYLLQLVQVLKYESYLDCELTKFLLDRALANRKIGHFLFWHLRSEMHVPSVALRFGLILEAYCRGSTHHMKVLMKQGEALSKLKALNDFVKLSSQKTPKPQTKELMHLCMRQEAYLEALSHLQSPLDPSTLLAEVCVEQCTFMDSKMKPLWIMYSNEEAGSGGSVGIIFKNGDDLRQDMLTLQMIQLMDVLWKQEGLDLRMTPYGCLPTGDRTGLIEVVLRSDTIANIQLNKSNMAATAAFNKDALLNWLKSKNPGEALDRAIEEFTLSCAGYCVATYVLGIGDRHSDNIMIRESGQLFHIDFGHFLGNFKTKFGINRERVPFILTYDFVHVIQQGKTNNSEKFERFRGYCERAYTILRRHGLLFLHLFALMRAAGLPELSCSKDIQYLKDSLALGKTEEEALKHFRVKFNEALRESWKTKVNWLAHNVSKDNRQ
- procedure.text: PI3K delta kinase assay (Kinase-Glo luminescence)
- Format: biochemical
- condition: read-out: EPK_PI3Kdelta/IC50
For each of the compounds below, state its IC50.
Answers are plain numbers, in nM.

CCNc1cc(-c2ccc3ncc4c(c3c2)n(-c2ccc(C)nc2C)c(=O)n4C)cnc1C [Example 14.6] : 20

Please report IC50 for every entry that follows.
1. CNc1ncc(-c2ccc3ncc4c(c3c2)n(-c2cnc(F)cc2C)c(=O)n4C)cn1 [Example 16.3]
2. CNc1ccc(-c2ccc3ncc4c(c3c2)n(-c2ccc(N3CCCC3)nc2C)c(=O)n4C)cn1 [Example 25.1]
3. COCCOc1ccc(-n2c(=O)n(C)c3cnc4ccc(-c5cnc(N)c(C(F)(F)F)c5)cc4c32)c(C)n1 [Example 13.2]
4. Cc1ncccc1-n1c(=O)n(C)c2cnc3ccc(-c4cncc(N)c4)cc3c21 [Example 2.25]

Output line:
1. 113
2. 24
3. 14
4. 57

Please report IC50 for every entry that follows.
1. COc1cc(-c2ccc3ncc4c(c3c2)n(-c2ccc(N(C)C)nc2C)c(=O)n4C)cnc1CO [Example 19.4]
2. CNc1ccc(-c2ccc3ncc4c(c3c2)n(-c2ccc(OCCOC)nc2C)c(=O)n4C)cn1 [Example 13.3]
3. CCNc1ncc(-c2ccc3ncc4c(c3c2)n(-c2ccc(C(C)(C)O)nc2C)c(=O)n4C)cn1 [Example 31.7]

Output line:
24
26
27

* * *

- target.or.system: mTOR (Homo sapiens, UniProt P42345)
- Construct: purchased Invitrogen Corporation (Carlsbad/Calif., USA) PV4753
- procedure.text: Biochemical assay for m-TOR by TR-FRET
- condition: read-out: EPK_mTOR/IC50
For each of the compounds below, state its IC50.
Answers are plain numbers, in nM.

Field: example entries. Status: answers known.
CCNc1cc(-c2ccc3ncc4c(c3c2)n(-c2ccc(C)nc2C)c(=O)n4C)cnc1C [Example 14.6] : 6
CNc1ncc(-c2ccc3ncc4c(c3c2)n(-c2ccc(N(C)CCOC)nc2C)c(=O)n4C)cn1 [Example 15.2] : 7
Cc1nc(N2CC[C@H](O)C2)ccc1-n1c(=O)n(C)c2cnc3ccc(-c4cncc(OC(C)C)c4)cc3c21 [Example 32.8] : 42.5
CNc1ccc(-c2ccc3ncc4c(c3c2)n(-c2ccc(N3CCCC3)nc2C)c(=O)n4C)cn1 [Example 25.1] : 34
Cc1nc(C(C)(C)O)ccc1-n1c(=O)n(C)c2cnc3ccc(-c4cnc(N)c(C(F)(F)F)c4)cc3c21 [Example 31.5] : 6

Please report IC50 for every entry that follows.
1. COCCOc1ccc(-n2c(=O)n(C)c3cnc4ccc(-c5cnc(N)c(C(F)(F)F)c5)cc4c32)c(C)n1 [Example 13.2]
2. Cc1nc(C(C)(C)O)ccc1-n1c(=O)n(C)c2cnc3ccc(-c4cncc(C(C)(C)C#N)c4)cc3c21 [Example 31.6]
3. CNc1ncc(-c2ccc3ncc4c(c3c2)n(-c2ccc(C(C)(C)O)nc2C)c(=O)n4C)cn1 [Example 31.2]

Output line:
1: 18; 2: 95; 3: 6

Please report IC50 for every entry that follows.
1. CNc1ccc(-c2ccc3ncc4c(c3c2)n(-c2cnc(F)cc2C)c(=O)n4C)cn1 [Example 16.4]
2. CCNc1cc(-c2ccc3ncc4c(c3c2)n(-c2ccc(N(C)CC)nc2C)c(=O)n4C)cnc1C [Example 12.2]
3. COc1cc(-c2ccc3ncc4c(c3c2)n(-c2ccc(F)nc2C)c(=O)n4C)cnc1CO [Example 7.10]
4. CCOc1cc(-c2ccc3ncc4c(c3c2)n(-c2cccnc2C)c(=O)n4C)cnc1COC [Example 2.28]

Output line:
[704, 7, 301, 58]

Please report IC50 for every entry that follows.
1. Cc1nc(F)ccc1-n1c(=O)n(C)c2cnc3ccc(-c4cncc(C(C)(C)O)c4)cc3c21 [Example 7.8]
2. COc1ccc(-n2c(=O)n(C)c3cnc4ccc(-c5ccc6nccn6c5)cc4c32)c(OC)n1 [Example 8.10]

Output line:
86
470
